From: PubChem BioAssay (NCI)

Test system: HT29 colon
protocol: NCI tumour cell line growth inhibition, 48 h
observable: TGI

Example entries and their recorded answers appear below.
COC(=O)C1[C@H](c2ccc3c(c2)OCO3)OC(=O)[C@]1(C(=O)OC)C(=O)c1ccc(OC)c(OC)c1 (stereo partly drawn)
> 100 µM
O=[N+]([O-])c1oc2ccc3ccccc3c2c1CCO
25.7 µM
O=S(=O)(c1cc(Cl)ccc1Cl)N1CCN(c2cccc(Cl)c2)CC1
> 100 µM
Cc1ccc(S(=O)(=O)OCCOCCOCCOCCOCCOS(=O)(=O)c2ccc(C)cc2)cc1
> 100 µM
Nc1cc(Cl)ccc1SSc1ccc(Cl)cc1N
42.3 µM
COC(=O)C(c1ccc(OC)cc1)N1C(=O)[C@@H](NC(=O)c2ccccc2)[C@H]1[C@@H](C)O (stereo partly drawn)
> 100 µM
NC(=O)CCSC(CC(=O)c1ccc(Cl)cc1)c1ccc(Cl)cc1 (stereo not drawn)
> 100 µM
N#Cc1c(N/N=C\c2ccc(Cl)cc2)nc(N)nc1N1CCOCC1
> 100 µM

Let us move to another entry and its TGI.
Measured TGI of CC1=N[C@@](C)(C2CC3C=CC2C3=O)COC1=O (stereo partly drawn) : > 100 µM

###

Test system: HOP-62 NSCLC
protocol: NCI tumour cell line growth inhibition, 48 h
observable: TGI (µM)
Give the value in µM but do not write µM after it.

Measured TGI of `c1ccc2c(CNCCCCCCCCNCc3cccc4ccccc34)cccc2c1` : 30.1

Measured TGI of Cc1ccccc1C(C(=O)NC1CCCCC1)N(C(=O)CNc1ccc(C#N)cc1)c1cccc(F)c1 (configuration not stated) : 14.4

Measured TGI of CC(C)(C)[Si](C)(C)OCC1OC(n2ccc(=O)[nH]c2=O)C(O[Si](C)(C)C(C)(C)C)[C@]12O[C@@H]2CO (some centres not stated) : 30.2

Measured TGI of CC(C)Cc1ccc(C(C)C(=O)NCc2ccc(Cn3c(=O)sn(CCCI)c3=O)cc2)cc1 (configuration not stated) : 3.6

Measured TGI of `CC(C)C(=O)c1c(C(F)(F)F)n([O-])c2ccccc2[n+]1=O` : 3.49

###

System: HCC-2998 colon
protocol: NCI tumour cell line growth inhibition, 48 h
observable: TGI (µM)
Give the value in µM but do not write µM after it.

CC(C)C(=O)c1c(C(F)(F)F)n([O-])c2ccccc2[n+]1=O
4.04

Let us move to another entry and its TGI.
The measured TGI that `CC(=O)OCCCC#CC#Cc1cccc(=O)o1` showed for HCC-2998 colon is 33.2

###

System: A549 NSCLC
protocol: NCI tumour cell line growth inhibition, 48 h
observable: GI50

CC(=O)OCCCC#CC#Cc1cccc(=O)o1
20400 nM
CC(C)Cc1ccc(C(C)C(=O)NCc2ccc(Cn3c(=O)sn(CCCI)c3=O)cc2)cc1 (centres undefined)
1390 nM
COc1cc(C2CC(=O)Nc3c2c(C)nn3-c2nc3ccccc3[nH]2)cc(OC)c1O (centres undefined)
3450 nM
Cn1c(=O)c(Oc2ccc(F)cc2F)cc2cnc(NC3CCOCC3)nc21
> 25000 nM

The measured GI50 that `COc1ccc(-c2cn(-c3cc(OC)c(OC)c(OC)c3)c(=O)[nH]2)cc1OC` showed for A549 NSCLC is > 100000 nM
